Where these numbers come from: patent US4612318A

experiment: acute toxicity (LD50) in rats; conditions: rat, in vivo, po; orally administered rats
Measured quantity: LD50 (mg/kg)
Supply the numeric figure in mg/kg, leaving out any unit text.

Could you share which LD50 value was measured for Cc1nn(C)c2ncc3c(c12)CCCC3 ? 650
